Assay: chemical genetic growth profiling, strain panel (AID 1159580);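 further: tested at 20 µM; growth read once vehicle control cultures reached saturation at 30 °C; lower values mean less growth of the strain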
Conditions: S. cerevisiae deletion strains, growth OD, locus YDL035C, strain GPR1, hits give low values
About 2,000 (36%) of roughly 5,500 compounds were called active. About 18% were inconclusive and are not listed. This is one part of the list.
Exam item: assign Fulfilled to entries whose normalized growth is below 1 and Not fulfilled to entries at or above 1. Note that a value of exactly 1 receives Not fulfilled.

Check if normalized growth falls below 1 for CC[C@@]1(O)C[C@H](O[C@H]2C[C@H](N(C)C)[C@H](O)[C@H](C)O2)c2c(cc3c(c2O)C(=O)c2c(O)cccc2C3=O)[C@H]1C(=O)OC . Fulfilled

Check if normalized growth falls below 1 for COC(=O)c1cc(=O)c(O)c2c(O)c(O)ccc2c1 . Fulfilled

Check if normalized growth falls below 1 for CC[C@@]1(O)C[C@H](O)c2c(cc3c(c2O)C(=O)c2c(O)ccc(O)c2C3=O)[C@H]1C(=O)OC . Fulfilled

Check if normalized growth falls below 1 for CC1COc2c(N3CCN(C)CC3)c(F)cc3c(=O)c(C(=O)O)cn1c23 (configuration not stated) . Not fulfilled

Check if normalized growth falls below 1 for COC(=O)[C@@H]1OC(=O)C2OC23[C@@]1(C)CCC1[C@]2(C)C(C[C@H](O)[C@]13C)C(C)(C)[C@H](OC(C)=O)C[C@@H]2OC(C)=O (some centres not stated) . Not fulfilled

Check if normalized growth falls below 1 for O=c1cccc2ccc(O)c(O)c2c1O . Fulfilled

Check if normalized growth falls below 1 for COc1ccc(C(=O)O)cc1OC . Not fulfilled

Check if normalized growth falls below 1 for O=C(Oc1cc(OC(=O)c2ccccc2)c2c(c1)O[C@H](c1ccc(OC(=O)c3ccccc3)c(OC(=O)c3ccccc3)c1)[C@@H](OC(=O)c1ccccc1)C2)c1ccccc1 . Not fulfilled

Check if normalized growth falls below 1 for O=C1C(Cl)=C(Cl)C(=O)C(Cl)=C1Cl . Fulfilled

Check if normalized growth falls below 1 for CN1CCC(OC(c2ccccc2)c2ccccc2)CC1 . Not fulfilled

Check if normalized growth falls below 1 for CN1C2CCC1CC(OC(c1ccccc1)c1ccccc1)C2 (configuration not stated) . Fulfilled

Check if normalized growth falls below 1 for CC[C@@]1(O)C[C@H](O[C@H]2C[C@H](N(C)C)[C@H](O)[C@H](C)O2)c2c(cc3c(c2O)C(=O)c2c(O)ccc(O)c2C3=O)[C@H]1C(=O)OC . Fulfilled

Check if normalized growth falls below 1 for C=C[C@@](C)(O)CCC1C(=C)CCC2[C@@](C)(CO)CCC[C@]12C (some centres not stated) . Fulfilled
